test-target: T1, Peptide-biotin
T1 construct: also called antigen
T1 sequence (Q8TD43 other isoform, or with tags, fused parts or gaps): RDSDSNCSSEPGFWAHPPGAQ
protocol-notes: SPR Biacore 8K affinity ranking; antibody Fc-captured, Peptide-biotin analyte, 1:1 fit
measurement-label: koff (s⁻¹)
// return numeric value only (unit: s⁻¹, not printed)

// solved cases for koff follow
[[record]]
binder = "humanized anti-TRPM4 antibody clone A7 (VH2 + VL2) (antibody, V domains shown, Full-length IgG, IgG1 heavy chain; also called VH2 + VL2 (A7)) VH: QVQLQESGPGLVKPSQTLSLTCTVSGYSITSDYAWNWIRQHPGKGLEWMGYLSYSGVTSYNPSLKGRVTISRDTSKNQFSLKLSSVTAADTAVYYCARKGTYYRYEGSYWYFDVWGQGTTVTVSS VL: DIQMTQSPSSLSASVGDRVTITCHANQNIDVWLSWYQQKPGKAPKLLIYKTSNLHTGVPSRFSGSGSGTDFTLTISSLQPEDIATYYCQQGQSYPLTFGGGTKLEIKR"
measurement_label = "koff"
scale_unit = "s⁻¹"
recorded_measurement = 0.00295

[[record]]
binder = "humanized anti-TRPM4 antibody VH2 + VL4 (antibody, V domains shown, Full-length IgG) VH: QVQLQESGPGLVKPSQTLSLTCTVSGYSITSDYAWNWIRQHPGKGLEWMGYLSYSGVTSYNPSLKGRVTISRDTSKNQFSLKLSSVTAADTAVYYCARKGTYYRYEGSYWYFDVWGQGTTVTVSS VL: DIQMTQSPSSLSASVGDRVTITCHANQNIDVWLSWYQQKPGNAPKLLIYKTSNLHTGVPSRFSGSGSGTDFTLTISSLQPEDIATYYCQQGQSYPLTFGGGTKLEIKR"
measurement_label = "koff"
scale_unit = "s⁻¹"
recorded_measurement = 0.00185

[[record]]
binder = "humanized anti-TRPM4 antibody VH4 + VL3 (antibody, V domains shown, Full-length IgG) VH: QVQLQESGPGLVKPSQTLSLTCTVSGYSITSDYAWNWIRQHPGKGLQWMGYLSYSGVTSYNPSLKGRITISRDTSKNQFFLKLSSVTAADTAVYYCARKGTYYRYEGSYWYFDVWGQGTTVTVSS VL: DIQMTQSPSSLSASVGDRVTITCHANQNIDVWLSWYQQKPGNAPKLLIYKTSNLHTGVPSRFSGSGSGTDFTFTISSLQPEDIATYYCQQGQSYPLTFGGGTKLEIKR"
measurement_label = "koff"
scale_unit = "s⁻¹"
recorded_measurement = 0.00143


State the recorded koff for this entry: humanized anti-TRPM4 antibody clone A5 (VH1 + VL4) (antibody, V domains shown, Full-length IgG, IgG1 heavy chain; also called VH1 + VL4 (A5)) VH: QVQLQESGPGLVKPSQTLSLTCTVSGYSITSDYAWNWIRQHPGKGLEWIGYLSYSGVTSYNPSLKGRVTISVDTSKNQFSLKLSSVTAADTAVYYCARKGTYYRYEGSYWYFDVWGQGTTVTVSS VL: DIQMTQSPSSLSASVGDRVTITCHANQNIDVWLSWYQQKPGNAPKLLIYKTSNLHTGVPSRFSGSGSGTDFTLTISSLQPEDIATYYCQQGQSYPLTFGGGTKLEIKR
0.00217
